# systemUnderTest: recombinant soluble homotrimeric HA of A/Wisconsin/67/05 (H3N2) (Influenza A virus A/Wisconsin/67/2005 (H3N2))
# assayProtocol: HA microarray, BCC supernatant
# conditionLabel: remark: other sources report otherwise
Use 10000 RLU as the dividing line for Trimeric HA Binding RLU, with the line itself on the TRUE side and lower values as FALSE.

>  <binder>
TCN-546 (5089_L08) (antibody, V domains shown) VH: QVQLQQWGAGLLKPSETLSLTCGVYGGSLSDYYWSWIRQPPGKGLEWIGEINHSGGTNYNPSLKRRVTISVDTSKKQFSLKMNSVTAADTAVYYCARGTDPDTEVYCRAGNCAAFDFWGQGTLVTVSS VL: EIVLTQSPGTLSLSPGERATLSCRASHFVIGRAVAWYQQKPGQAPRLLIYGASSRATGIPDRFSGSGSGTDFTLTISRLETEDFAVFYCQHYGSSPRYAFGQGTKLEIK

>  <assignedClass>
TRUE

$$$$
>  <binder>
TCN-531 (5091_H13) (antibody, V domains shown) VH: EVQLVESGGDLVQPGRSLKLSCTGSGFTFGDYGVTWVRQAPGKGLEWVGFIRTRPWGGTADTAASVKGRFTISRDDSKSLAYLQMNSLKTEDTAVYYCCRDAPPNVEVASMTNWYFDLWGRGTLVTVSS VL: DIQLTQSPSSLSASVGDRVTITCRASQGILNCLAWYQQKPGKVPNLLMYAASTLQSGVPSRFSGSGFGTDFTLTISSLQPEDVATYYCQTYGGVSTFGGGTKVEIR

>  <assignedClass>
FALSE

$$$$
>  <binder>
TCN-553 (5261_C18) (antibody, V domains shown) VH: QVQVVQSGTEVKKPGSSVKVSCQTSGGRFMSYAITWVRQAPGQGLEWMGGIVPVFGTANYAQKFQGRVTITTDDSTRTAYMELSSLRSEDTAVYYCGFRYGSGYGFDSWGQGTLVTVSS VL: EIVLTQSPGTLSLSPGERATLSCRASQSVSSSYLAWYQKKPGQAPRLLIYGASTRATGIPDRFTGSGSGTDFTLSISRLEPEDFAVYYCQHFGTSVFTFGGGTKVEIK

>  <assignedClass>
TRUE

$$$$
>  <binder>
TCN-530 (5248_H10a) (antibody, V domains shown) VH: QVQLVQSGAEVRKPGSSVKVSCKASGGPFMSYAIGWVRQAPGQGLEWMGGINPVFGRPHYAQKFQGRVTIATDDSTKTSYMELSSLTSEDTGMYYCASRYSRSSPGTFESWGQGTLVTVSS VL: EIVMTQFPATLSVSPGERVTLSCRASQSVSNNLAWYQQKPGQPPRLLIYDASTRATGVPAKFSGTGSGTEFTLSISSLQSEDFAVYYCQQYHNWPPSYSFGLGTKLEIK

>  <assignedClass>
TRUE

$$$$
>  <binder>
TCN-538 (3206_O17) (antibody, V domains shown) VH: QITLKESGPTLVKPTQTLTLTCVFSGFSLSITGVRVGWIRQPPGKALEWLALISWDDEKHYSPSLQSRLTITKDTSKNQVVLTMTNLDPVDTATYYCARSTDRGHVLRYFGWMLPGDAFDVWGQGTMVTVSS VL: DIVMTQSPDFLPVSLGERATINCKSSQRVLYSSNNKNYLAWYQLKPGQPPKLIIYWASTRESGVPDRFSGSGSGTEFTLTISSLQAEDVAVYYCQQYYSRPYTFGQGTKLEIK

>  <assignedClass>
FALSE

$$$$
>  <binder>
TCN-527 (5086_C06) (antibody, V domains shown) VH: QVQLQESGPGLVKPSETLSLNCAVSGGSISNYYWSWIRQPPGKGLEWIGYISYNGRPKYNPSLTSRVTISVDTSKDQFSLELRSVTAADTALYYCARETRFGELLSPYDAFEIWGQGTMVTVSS VL: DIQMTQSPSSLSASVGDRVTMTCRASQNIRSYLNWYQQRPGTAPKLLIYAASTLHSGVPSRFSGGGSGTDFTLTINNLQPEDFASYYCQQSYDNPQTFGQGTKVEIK

>  <assignedClass>
FALSE

$$$$
>  <binder>
TCN-550 (5096_F06) (antibody, V domains shown) VH: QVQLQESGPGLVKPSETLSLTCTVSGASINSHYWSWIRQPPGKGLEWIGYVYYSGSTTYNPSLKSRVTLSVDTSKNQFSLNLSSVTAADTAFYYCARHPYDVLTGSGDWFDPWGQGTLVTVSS VL: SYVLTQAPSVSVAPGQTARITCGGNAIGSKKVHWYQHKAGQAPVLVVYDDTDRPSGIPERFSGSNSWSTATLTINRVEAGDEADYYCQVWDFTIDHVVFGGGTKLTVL

>  <assignedClass>
TRUE

$$$$
>  <binder>
TCN-552 (5249_I23) (antibody, V domains shown) VH: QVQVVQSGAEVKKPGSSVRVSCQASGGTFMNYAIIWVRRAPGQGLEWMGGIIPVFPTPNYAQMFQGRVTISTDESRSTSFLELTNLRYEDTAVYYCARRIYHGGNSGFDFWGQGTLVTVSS VL: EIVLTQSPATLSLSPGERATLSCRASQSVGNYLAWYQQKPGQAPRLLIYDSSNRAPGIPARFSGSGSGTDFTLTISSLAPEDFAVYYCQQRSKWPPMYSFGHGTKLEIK

>  <assignedClass>
TRUE

$$$$
>  <binder>
TCN-545 (5082_I15) (antibody, V domains shown) VH: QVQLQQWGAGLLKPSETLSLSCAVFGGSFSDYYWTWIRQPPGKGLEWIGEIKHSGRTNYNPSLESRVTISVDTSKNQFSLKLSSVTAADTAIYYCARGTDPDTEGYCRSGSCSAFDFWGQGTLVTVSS VL: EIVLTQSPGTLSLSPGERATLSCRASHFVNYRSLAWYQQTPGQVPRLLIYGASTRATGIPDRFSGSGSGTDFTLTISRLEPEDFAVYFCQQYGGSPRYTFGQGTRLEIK

>  <assignedClass>
FALSE

$$$$
>  <binder>
TCN-554 (5277_M05) (antibody, V domains shown) VH: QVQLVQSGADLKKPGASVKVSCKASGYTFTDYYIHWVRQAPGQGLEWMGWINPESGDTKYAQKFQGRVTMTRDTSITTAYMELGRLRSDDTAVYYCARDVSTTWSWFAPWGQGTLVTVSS VL: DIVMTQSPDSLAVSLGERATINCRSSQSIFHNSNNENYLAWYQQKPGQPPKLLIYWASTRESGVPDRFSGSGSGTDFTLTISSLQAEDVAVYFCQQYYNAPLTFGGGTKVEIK

>  <assignedClass>
TRUE

$$$$
